Tested on: novel coronavirus (SARS-CoV-2)
Test Protocol: microbe, parasite or virus in culture
Assay type: cell-based
Run Conditions: Severe acute respiratory syndrome coronavirus 2, Vero, 24 h, read-out: Infection inhibitory concentration IC50
Endpoint Label: IC50 (µM)
# unit: µM | format: bare number

Ask: Please report the recorded IC50 for COC(=O)c1cc(/C=C/C(=O)N2CCC=C(Br)C2=O)ccc1OC(C)=O [Compound 11] .
Reply: 1.97

Ask: Please report the recorded IC50 for COC(=O)c1cc(/C=C/C(=O)N2CCC=C(Cl)C2=O)ccc1OC(C)=O [Compound 13] .
Reply: 1.86

Ask: Please report the recorded IC50 for COC(=O)c1cc(/C=C/C(=O)N2CC=CC2=O)ccc1OC(C)=O [Compound 4] .
Reply: 7.68

Ask: Please report the recorded IC50 for COc1cc(/C=C/C(=O)N2CCC=C(Cl)C2=O)cc(OC)c1OCc1nnc(-c2cc(Cl)cc(Cl)c2)o1 [Compound 19] .
Reply: 4.12

Ask: Please report the recorded IC50 for O=C(/C=C/c1cccc([N+](=O)[O-])c1)N1CCC=C(Br)C1=O [Compound 17] .
Reply: 5.34

Ask: Please report the recorded IC50 for Cc1cccc(C)c1OCC(=O)N[C@@H](Cc1ccccc1)[C@@H](O)C[C@H](Cc1ccccc1)NC(=O)[C@H](C(C)C)N1CCCNC1=O [Lopinavir, lopinavir, reference compound] .
Reply: 12.7

Ask: Please report the recorded IC50 for COC(=O)c1cc(/C=C/C(=O)N2CCC=C(Cl)C2=O)ccc1OC [Compound 3] .
Reply: 2.01

Ask: Please report the recorded IC50 for CCC(CC)COC(=O)[C@H](C)N[P@](=O)(OC[C@H]1O[C@@](C#N)(c2ccc3c(N)ncnn23)[C@H](O)[C@@H]1O)Oc1ccccc1 [Remdesivir, remdesivir, reference compound] .
Reply: 2.65

Ask: Please report the recorded IC50 for CCN(CC)CCCC(C)Nc1ccnc2cc(Cl)ccc12 (centres unmarked) [Chloroquine, reference compound] .
Reply: 4.1

Ask: Please report the recorded IC50 for COC(=O)c1cc(/C=C/C(=O)N2CCC=C(Br)C2=O)ccc1OC [Compound 9] .
Reply: 1.6

Ask: Please report the recorded IC50 for COC(=O)c1cc(/C=C/C(=O)N2CCC=C(Br)C2=O)ccc1O [Compound 10] .
Reply: 2.31

Ask: Please report the recorded IC50 for O=C(/C=C/c1cccc([N+](=O)[O-])c1)N1CCC=C(Cl)C1=O [Compound 16] .
Reply: 4.19

Ask: Please report the recorded IC50 for COC(=O)c1cc(/C=C/C(=O)N2CCC=CC2=O)ccc1OC [Compound 1] .
Reply: 4.46

Ask: Please report the recorded IC50 for COC(=O)c1cc(/C=C/C(=O)N2CCC=C(Cl)C2=O)ccc1O [Compound 12] .
Reply: 2.63
